# procedure summary: NR viability assay, HMCB
# Type: cell-based, Homo sapiens
# condition info: human; HMCB, NR assay, 72 h; read-out: Viability CC50
recorded endpoint: CC50 at 72 h (µM)
Kindly answer with a numeric value in µM, unit omitted.

Lookup result for N#C/C(=C\c1ccc(O)cc1)C(=O)O ; measured CC50 at 72 h: 98.4

* * *

# System: THP-1 cell line
# procedure summary: NR viability assay, THP-1
# Type: cell-based, Homo sapiens
# condition info: THP-1, NR assay, 72 h; read-out: Viability CC50
recorded endpoint: CC50

Just so you know, measured CC50 for N#C/C(=C\c1ccc(O)cc1)C(=O)O [Compound 3] came out at > 100 µM

FYI, the data here is from paper PMC11280343.
